Test system: Two-Spotted Spider Mite
measurement notes: Protocol 1 Two-Spotted Spider Mite (MTA) foliar spray test
Format: in vivo, Tetranychus urticae
recorded conditions: Protocol 1, DOSE 150; percentage of mites killed 1-day post-treatment
Procedure: A test solution containing 1250 parts per million (ppm) was prepared by dissolving the test compound in […] of a second solvent (acetone: water, 1:1) to give an acetone:water: methanol system of 50: 40:10. The enclosed spraying chamber consisted of a single spray nozzle mounted on a boom moving at a fixed speed and distance over stationary targets. […]
Items are presented alongside their recorded MTA.
Please respond with the number in % and leave the unit unwritten.

MTA lookup needed for C=CCOC(=O)N1CC(=O)N(CCCC)N=C1c1cc(Cl)cc(Cl)c1 , thanks.
43
